SYSTEM_NAME: T1, human GFRα3 on HEK293/hGFRα3/hRET/SRE-luc cells (human, UniProt O60609 32-382)
T1 sequence: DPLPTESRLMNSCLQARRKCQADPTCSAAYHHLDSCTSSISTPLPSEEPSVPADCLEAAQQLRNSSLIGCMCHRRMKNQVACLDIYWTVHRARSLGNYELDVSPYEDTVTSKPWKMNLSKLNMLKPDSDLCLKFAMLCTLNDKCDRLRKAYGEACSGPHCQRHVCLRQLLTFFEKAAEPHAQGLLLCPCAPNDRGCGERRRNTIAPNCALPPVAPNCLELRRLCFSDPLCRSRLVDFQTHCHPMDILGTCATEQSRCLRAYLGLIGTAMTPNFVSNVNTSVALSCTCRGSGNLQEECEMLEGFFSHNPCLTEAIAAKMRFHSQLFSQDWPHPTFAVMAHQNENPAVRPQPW
MEASUREMENT_PROTOCOL: cell-based or functional assay
OBSERVATION_TYPE: IC50 (SRE-luc, HEK293/hGFRα3/hRET cells, 100 pM hARTEMIN-mmH) (nM)
Numbers only, in nM.

Please review the entries below; each comes with its answer.
H4H2364S (antibody, human IgG4, V domains shown, human IgG4 Fc (H4H)) VH: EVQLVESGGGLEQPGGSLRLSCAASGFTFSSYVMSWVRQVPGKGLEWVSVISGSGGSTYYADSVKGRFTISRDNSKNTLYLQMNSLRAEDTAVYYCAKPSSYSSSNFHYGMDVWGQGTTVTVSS VL: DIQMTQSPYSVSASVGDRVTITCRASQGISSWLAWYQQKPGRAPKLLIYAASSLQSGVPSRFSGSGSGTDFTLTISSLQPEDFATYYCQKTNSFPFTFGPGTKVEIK	2.3
H4H2344S (antibody, human IgG4, V domains shown, human IgG4 Fc (H4H)) VH: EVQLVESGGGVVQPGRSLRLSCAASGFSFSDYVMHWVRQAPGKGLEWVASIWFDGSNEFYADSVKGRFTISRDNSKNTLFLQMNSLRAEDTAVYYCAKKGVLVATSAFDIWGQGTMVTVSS VL: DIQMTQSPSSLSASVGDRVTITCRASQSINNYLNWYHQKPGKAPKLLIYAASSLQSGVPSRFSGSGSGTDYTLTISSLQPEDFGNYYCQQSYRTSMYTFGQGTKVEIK	48

Please state, for each entry, its recorded IC50 (SRE-luc, HEK293/hGFRα3/hRET cells, 100 pM hARTEMIN-mmH).
1. H4H2210N (antibody, human IgG4, V domains shown) VH: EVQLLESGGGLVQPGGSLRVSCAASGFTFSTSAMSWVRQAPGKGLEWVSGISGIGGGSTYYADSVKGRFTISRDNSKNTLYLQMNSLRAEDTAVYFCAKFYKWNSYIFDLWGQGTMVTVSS VL: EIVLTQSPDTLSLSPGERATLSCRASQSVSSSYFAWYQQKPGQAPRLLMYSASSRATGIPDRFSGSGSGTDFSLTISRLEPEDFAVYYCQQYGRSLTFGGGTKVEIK
2. H4H2291S (antibody, human IgG4, V domains shown, human IgG4 Fc (H4H)) VH: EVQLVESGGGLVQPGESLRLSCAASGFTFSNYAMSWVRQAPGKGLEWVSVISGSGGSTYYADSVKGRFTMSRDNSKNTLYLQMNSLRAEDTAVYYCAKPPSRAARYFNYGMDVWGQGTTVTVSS VL: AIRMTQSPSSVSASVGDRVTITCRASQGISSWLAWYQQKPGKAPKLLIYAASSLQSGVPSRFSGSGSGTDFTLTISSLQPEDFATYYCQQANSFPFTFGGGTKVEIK
3. H4H2342P (antibody, human IgG4, V domains shown, human IgG4 Fc (H4H)) VH: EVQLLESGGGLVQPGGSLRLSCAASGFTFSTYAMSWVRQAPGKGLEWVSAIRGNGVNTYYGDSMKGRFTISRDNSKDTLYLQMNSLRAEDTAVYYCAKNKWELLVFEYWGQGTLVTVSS VL: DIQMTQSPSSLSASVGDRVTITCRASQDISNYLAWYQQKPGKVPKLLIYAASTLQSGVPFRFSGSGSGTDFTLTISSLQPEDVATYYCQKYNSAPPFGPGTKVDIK

result:
1: 2.9; 2: 1.3; 3: 1
